MEASURED_ON: SARS-CoV-2 nsp3-mac1 (Severe acute respiratory syndrome coronavirus 2, UniProt P0DTD1)
ASSAY_NAME: biochemical
STATED_CONDITIONS: IC50, nsp3-mac1 activity, Figures 1-3 and text
pIC50: −log10 of the molar value.
Mark 1.0 for reported pIC50 of 6 or greater; mark 0.0 for anything smaller.

compound=Cc1[nH]c2ncnc(NC(=O)c3ccncc3Cl)c2c1C cat=0.0
compound=O=C(O)c1cscc1C(=O)N1CCC(c2ccn3ncc(C(=O)N4CCCCC4)c3c2)CC1 cat=0.0
compound="CCNC(=O)c1cc2c(NC(c3ccc4c(c3)OCCO4)C(C)C)ncnc2[nH]1 (stereo not drawn)" cat=1.0
compound="CC(C)C(Nc1ncnc2[nH]c(-c3cnn(C)c3)cc12)c1ccc2c(c1)OCCO2 (stereo not drawn)" cat=1.0
compound="CC(C)C(Nc1ncnc2[nH]ccc12)c1ccc2c(c1)S(=O)(=O)CCC2 (stereo not drawn)" cat=1.0
compound=Cc1[nH]c2ncnc(NC(=O)C3CC=CC3)c2c1C cat=0.0
compound="CNC(=O)Cn1cc(-c2cc3c(NC(c4ccc5c(c4)OCCO5)C(C)C)ncnc3[nH]2)cn1 (stereo not drawn)" cat=1.0
compound="CC(C)C(Nc1ncnc2n[nH]cc12)c1cnn(C)c1 (stereo not drawn)" cat=0.0

====

ASSAY_NAME: Hepatic microsomal stability, MLM
Format: in vitro ADME
STATED_CONDITIONS: In vitro mouse liver microsomal stability, no cofactor
PARAMETER: perc_remaining_no_cofactor

molecule="CC(C)[C@@H](Nc1ncnc2[nH]c(-c3cnn(C)c3C#N)cc12)c1ccc2c(n1)NC(=O)CO2 [ASAP-0008644]" assay_value=92.0%
molecule="CNCc1cc(-c2cc3c(N[C@@H](c4ccc5c(c4)S(=O)(=O)NCC5)C(C)C)ncnc3[nH]2)co1 [ASAP-0011243]" assay_value=95.0%
molecule="CCNC(=O)c1cc2c(N[C@H](c3ccc4c(c3)S(=O)(=O)CCC4)C(C)C)ncnc2[nH]1 [ASAP-0012325]" assay_value=97.0%
molecule="CC(C)[C@@H](Nc1ncnc2[nH]c(-c3cnn(C)c3C#N)cc12)c1ccc2c(n1)NC(=O)CO2 (single isomer, unassigned) [ASAP-0011180]" assay_value=92.0%

====

ASSAY_NAME: Protein binding
Format: in vitro ADME
STATED_CONDITIONS: In vitro mouse plasma protein binding
Entries and their measured perc_recovered follow.
PARAMETER: perc_recovered

smiles_record=Cn1ncc(-c2cc3c(N[C@@H](c4ccc5c(n4)OCCO5)C(C)(C)C)ncnc3[nH]2)c1C#N assay_value=98.18%
smiles_record=CC(C)[C@H](Nc1ncnc2[nH]c(-c3cnn(C)c3C#N)cc12)c1ccc2c(n1)OCCO2 assay_value=93.63%
smiles_record=COc1ccc([C@H](Cc2nnn[nH]2)NC(=O)c2ncnc3[nH]ccc23)cc1 assay_value=84.29%
smiles_record=CNCc1cc(-c2cc3c(N[C@@H](c4ccc5c(c4)S(=O)(=O)CCC5)C(C)C)ncnc3[nH]2)co1 assay_value=94.01%
smiles_record=C[C@H](C(=O)O)[C@@H](NC(=O)c1ncnc2[nH]ccc12)c1ccc(Br)cc1 assay_value=94.29%
smiles_record=CC(C)[C@@H](Nc1ncnc2[nH]c(-c3cnn(C)c3C#N)cc12)c1ccc2c(n1)OCCO2 assay_value=94.71%
smiles_record=CC(C)[C@H](Nc1ncnc2[nH]ccc12)c1ccc2c(c1)S(=O)(=O)CCC2 assay_value=89.46%

====

ASSAY_NAME: Permeability Papp (AB) MDR1/MDCKII
STATED_CONDITIONS: MDR1-MDCKII, recovery A to B, with inhibitor Verapamil
Listed below: perc_recovery_a_to_b_inhibitor_mean values for each entry.
PARAMETER: perc_recovery_a_to_b_inhibitor_mean

compound="CC(C)[C@@H](Nc1ncnc2[nH]c(-c3cnn(C)c3)cc12)c1ccc2c(c1)S(=O)(=O)CCC2 (single isomer, unassigned)" parameter=perc_recovery_a_to_b_inhibitor_mean assay_value=104.0%
compound="CC(C)[C@@H](Nc1ncnc2[nH]c(-c3cnn(CC(N)=O)c3)cc12)c1ccc2c(n1)OCCO2 (single isomer, unassigned)" parameter=perc_recovery_a_to_b_inhibitor_mean assay_value=96.8%
compound="CC(C)[C@H](Nc1ncnc2[nH]c(-c3cnn(C)c3C#N)cc12)c1ccc2c(n1)NC(=O)CO2 (single isomer, unassigned)" parameter=perc_recovery_a_to_b_inhibitor_mean assay_value=78.2%
compound="Cc1nn(C)cc1-c1cc2c(NC(c3ccc4c(c3)S(=O)(=O)CCC4)C(C)C)ncnc2[nH]1 (centres unmarked)" parameter=perc_recovery_a_to_b_inhibitor_mean assay_value=87.7%
compound="CC(C)[C@@H](Nc1ncnc2[nH]c(-c3cnn(C)c3C#N)cc12)c1ccc2c(c1)S(=O)(=O)CCC2 (single isomer, unassigned)" parameter=perc_recovery_a_to_b_inhibitor_mean assay_value=63.2%
compound="CC(C)[C@@H](Nc1ncnc2[nH]c(C(=O)N[C@H]3CCN(C)C3)cc12)c1ccc2c(c1)S(=O)(=O)CCC2 (single isomer, unassigned)" parameter=perc_recovery_a_to_b_inhibitor_mean assay_value=95.9%
compound=CC(C)[C@H](Nc1ncnc2[nH]ccc12)c1ccc2c(c1)S(=O)(=O)CCC2 parameter=perc_recovery_a_to_b_inhibitor_mean assay_value=90.5%
compound="CC(C)[C@H](Nc1ncnc2[nH]c(-c3cnn(C)c3C#N)cc12)c1ccc2c(c1)S(=O)(=O)CCC2 (single isomer, unassigned)" parameter=perc_recovery_a_to_b_inhibitor_mean assay_value=84.6%

====

MEASURED_ON: beta2 (h) (Homo sapiens, UniProt P07550)
Construct: purchased Eurofins Cerep (SafetyScreen44), recognised from the panel format
Sequence (P07550 whole entry): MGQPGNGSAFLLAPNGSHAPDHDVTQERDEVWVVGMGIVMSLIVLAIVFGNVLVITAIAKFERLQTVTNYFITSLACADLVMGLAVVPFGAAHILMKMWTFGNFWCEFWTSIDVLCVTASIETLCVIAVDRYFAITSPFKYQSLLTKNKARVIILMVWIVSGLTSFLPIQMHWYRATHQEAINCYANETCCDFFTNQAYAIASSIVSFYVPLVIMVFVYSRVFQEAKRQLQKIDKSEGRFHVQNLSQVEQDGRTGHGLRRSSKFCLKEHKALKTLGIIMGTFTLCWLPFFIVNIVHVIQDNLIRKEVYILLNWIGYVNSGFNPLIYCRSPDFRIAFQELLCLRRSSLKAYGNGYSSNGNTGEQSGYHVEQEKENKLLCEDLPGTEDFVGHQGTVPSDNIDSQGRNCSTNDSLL
ASSAY_NAME: In vitro CEREP profiling, beta2 (h) (antagonist radioligand)
Type: binding
STATED_CONDITIONS: test compound 10 uM
As shown below, each of these compounds has a reported perc_inhibition (% inhibition of the binding of a ligand specific for each target) value.
PARAMETER: perc_inhibition (% inhibition of the binding of a ligand specific for each target) (%)

smiles_record=CC(C)[C@H](Nc1ncnc2[nH]ccc12)c1ccc2c(c1)S(=O)(=O)CCC2 assay_value=-1
smiles_record=C[C@H](C(=O)O)[C@@H](NC(=O)c1ncnc2[nH]ccc12)c1ccc(Br)cc1 assay_value=-8
smiles_record=CNCc1cc(-c2cc3c(N[C@@H](c4ccc5c(c4)S(=O)(=O)CCC5)C(C)C)ncnc3[nH]2)co1 assay_value=6
smiles_record=CC(C)[C@H](Nc1ncnc2[nH]c(-c3cnn(C)c3C#N)cc12)c1ccc2c(n1)OCCO2 assay_value=3
smiles_record=Cn1ncc(-c2cc3c(N[C@@H](c4ccc5c(n4)OCCO5)C(C)(C)C)ncnc3[nH]2)c1C#N assay_value=4
smiles_record=COc1ccc([C@H](Cc2nnn[nH]2)NC(=O)c2ncnc3[nH]ccc23)cc1 assay_value=-6
smiles_record=CC(C)[C@@H](Nc1ncnc2[nH]c(-c3cnn(C)c3C#N)cc12)c1ccc2c(n1)OCCO2 assay_value=3

====

# Lookup of reported perc_max_measured keyed by entry
Tested on: SARS-CoV-2
ASSAY_NAME: Antiviral effect in iPSC-derived pneumocyte system
Type: cell-based
STATED_CONDITIONS: iPSC pneumocytes SARS-CoV-2 antiviral effect; maximum measured response of dose series
PARAMETER: perc_max_measured

compound="CC(C)[C@@H](Nc1ncnc2[nH]c(-c3cnn(C)c3C#N)cc12)c1ccc2c(n1)OCCO2 [ASAP-0008418]" parameter=perc_max_measured assay_value=116.418%
compound="CC(C)[C@@H](Nc1ncnc2[nH]c(-c3cnn(C)c3C#N)cc12)c1ccc2c(c1)S(=O)(=O)CCC2 (single isomer, unassigned) [ASAP-0011147]" parameter=perc_max_measured assay_value=75.192%
compound="CNC(=O)c1c[nH]c2ncnc(N[C@H](c3ccc4c(c3)S(=O)(=O)CCC4)C(C)C)c12 (single isomer, unassigned) [ASAP-0011153]" parameter=perc_max_measured assay_value=88.736%

====

ASSAY_NAME: Hepatic microsomal stability, MLM
Assay type: in vitro ADME
STATED_CONDITIONS: In vitro mouse liver microsomal stability
PARAMETER: t_half (min)

compound="Cn1ncc(-c2cc3c(N[C@@H](c4ccc5c(n4)OCCO5)C(C)(C)C)ncnc3[nH]2)c1C#N [ASAP-0011221]" parameter=t_half units_of_measure=min assay_value=7.4
compound="CC(C)[C@H](Nc1ncnc2[nH]c(-c3cnn(CC(N)=O)c3)cc12)c1ccc2c(c1)OCCO2 (single isomer, unassigned) [ASAP-0008450]" parameter=t_half units_of_measure=min assay_value=40.0
compound="CC(C)[C@H](CO)Nc1ncnc2[nH]ccc12 [ASAP-0000453]" parameter=t_half units_of_measure=min assay_value=171.1
compound="CC(C)[C@@H](Nc1ncnc2[nH]c(-c3cnn(C)c3)cc12)c1ccc2c(c1)S(=O)(=O)CCC2 (single isomer, unassigned) [ASAP-0012329]" parameter=t_half units_of_measure=min assay_value=11.9
compound="CC(C)[C@@H](Nc1ncnc2[nH]c(-c3cnn(C)c3)cc12)c1ccc2c(c1)S(=O)(=O)NCC2 [ASAP-0011192]" parameter=t_half units_of_measure=min assay_value=19.1
compound="CC(C)(C)[C@H](Nc1ncnc2[nH]c(-c3cnn(CC(N)=O)c3)cc12)c1ccc2c(n1)OCCO2 (racemic) [ASAP-0008648]" parameter=t_half units_of_measure=min assay_value=53.1
compound="CC(C)[C@H](Nc1ncnc2[nH]c(C(=O)N[C@H]3CCN(C)C3)cc12)c1ccc2c(c1)S(=O)(=O)CCC2 [ASAP-0012334]" parameter=t_half units_of_measure=min assay_value=1540.5

Taken from paper doi:10.1101/2024.08.19.608619.
